Values compiled from patent US20210139565A1.

Molecular target: T1, Y. pestis LcrV protein (Yersinia pestis KIM5, UniProt P0C7U7 1-326)
T1 construct: also called LcrV antigen
T1 sequence (P0C7U7 whole entry): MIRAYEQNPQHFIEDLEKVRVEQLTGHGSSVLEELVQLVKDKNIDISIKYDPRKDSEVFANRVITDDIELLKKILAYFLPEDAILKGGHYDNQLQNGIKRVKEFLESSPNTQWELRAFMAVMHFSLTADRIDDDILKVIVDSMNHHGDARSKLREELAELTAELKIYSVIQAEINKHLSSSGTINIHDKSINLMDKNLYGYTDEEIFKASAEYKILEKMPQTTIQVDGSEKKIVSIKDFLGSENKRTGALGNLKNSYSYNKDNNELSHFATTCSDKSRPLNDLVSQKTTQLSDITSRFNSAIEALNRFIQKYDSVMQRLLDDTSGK
Experiment: SPR, BIACORE T200, LcrV on CM5 chip, 1:1 model
measurement.name: koff (s⁻¹)
# output: bare number, implied unit s⁻¹

In plain terms, 1LCRV81 (VHH) VHH: QVQLQESGGGSVQPGGSLKLSCAASGFTFNWYTMAWYRQVPGEERKMVATITGASGDTKYADSVKGRSTISRDNAKNTVTLQMNSLKPGDTAVYYCHACLTYDSGSVKGVNYWGQGTQVTVSS has a documented koff of 0.00063

Lookup result for 1LCRV32 (VHH) VHH: QVQLQESGGGMVEPGGSLRLSCAASGFRFSSYAMSWVRQAPGKGLERVSAINSDGDKTSYADSVKGRFTISRDNARNTLYLQMSNLKPEDTAVYYCADRDLYCSGSMCKDVLGGARYDFRGQGTQVTVSS ; measured koff: 0.0073

Reported koff of 1LCRV31 (VHH) VHH: QVQLQESGGGLVQPGGSLGLSCAASGSLLNIYAMGWYRQAPGRQRELVATVTSSGTAEYADSVKGRFTISRDNAKNTVYLQMNSLRPEDTGVYYCNAHLRYGDYVRGPPEYNYWGQGTQVTVSS : 3.1e-07

Just so you know, measured koff for 2LCRV11 (VHH) VHH: QVQLQESGGGLVQPGGSTRLSCAASGFTLDIYAIGWFRQAPGKEHEGVSWIVGNDGRTYYIDSVKGRFTISRDNAKNTVYLEMNSLKPEDTAVYYCAAKFWPRYYSGRPPVGRDGYDYWGQGTQVTVSS came out at 0.0072

Noted for 1LCRV13 (VHH) VHH: QVQLQESGGGLVRPGGSLKLSCAASGFTFNWYTMAWYRQVPGEERKMVATITGASGDTKYADSVKGRFTISRDNAKNTVTLQMNSLKPGDTAVYYCHAYLTYDSGSVKGVNYWGQGTQVTVSS : its koff reads 1.6e-07

The reported koff of the binder 1LCRV28 (VHH) VHH: QVQLQESGGGLVQPGGSLRLSCAASGGTLGYYAIGWFRQAPGKEREAVSCITSSDTSAYYADSAKGRFTISRDNAKNTMYLQMNNLKPEDTAVYYCAAGYYFRDYSDSYYYTGTGMKVWGKGTQVTVSS was 8.1e-05
